# pIC50 measurements, system: Human immunodeficiency virus type 1 reverse transcriptase (Human immunodeficiency virus 1)
pIC50: −log10 of the molar value.

Inquiry: // fetch Human immunodeficiency virus type 1 reverse transcriptase (Human immunodeficiency virus 1) pIC50 for CC(=O)OCCOCn1c2c(c(=O)[nH]c1=O)CNc1ccccc1S2
Reply text: 4.94

Inquiry: // fetch Human immunodeficiency virus type 1 reverse transcriptase (Human immunodeficiency virus 1) pIC50 for CC(=O)OCCOCn1c2c(c(=O)n(C)c1=O)CNc1ccccc1S2
Reply text: < 4.00

Inquiry: // fetch Human immunodeficiency virus type 1 reverse transcriptase (Human immunodeficiency virus 1) pIC50 for CC(=O)OCCOCn1c2c(c(=O)[nH]c1=O)C(=O)Nc1ccccc1S2
Reply text: < 4.00

Inquiry: // fetch Human immunodeficiency virus type 1 reverse transcriptase (Human immunodeficiency virus 1) pIC50 for O=c1[nH]c2c(c(=O)[nH]1)CNc1ccccc1S2 [PYRIMIDOBENZOTHIAZEPINE]
Reply text: < 4.00

Inquiry: // fetch Human immunodeficiency virus type 1 reverse transcriptase (Human immunodeficiency virus 1) pIC50 for O=c1[nH]c(=O)n(COCCO)c2c1C(c1ccc([N+](=O)[O-])cc1)Nc1ccccc1S2 (stereo unspecified)
Reply text: < 4.00

Inquiry: // fetch Human immunodeficiency virus type 1 reverse transcriptase (Human immunodeficiency virus 1) pIC50 for CC(=O)OCCOCn1c2c(c(=O)[nH]c1=O)C(c1ccccc1)Nc1ccccc1S2 (stereo unspecified)
Reply text: < 4.00

Inquiry: // fetch Human immunodeficiency virus type 1 reverse transcriptase (Human immunodeficiency virus 1) pIC50 for CCOCn1c2c(c(=O)[nH]c1=O)CNc1ccccc1S2
Reply text: 4.30

Inquiry: // fetch Human immunodeficiency virus type 1 reverse transcriptase (Human immunodeficiency virus 1) pIC50 for CC(=O)OCCOCn1c2c(c(=O)[nH]c1=O)CN(C)c1ccccc1S2
Reply text: 4.83

Inquiry: // fetch Human immunodeficiency virus type 1 reverse transcriptase (Human immunodeficiency virus 1) pIC50 for O=c1[nH]c(=O)n(COCCO)c2c1CNc1ccccc1S2
Reply text: < 4.00

Inquiry: // fetch Human immunodeficiency virus type 1 reverse transcriptase (Human immunodeficiency virus 1) pIC50 for CCOCCOCn1c2c(c(=O)[nH]c1=O)CNc1ccccc1S2
Reply text: 6.19

Inquiry: // fetch Human immunodeficiency virus type 1 reverse transcriptase (Human immunodeficiency virus 1) pIC50 for O=c1[nH]c(=O)n(COCCO)c2c1C(c1ccccc1)Nc1ccccc1S2 (stereo unspecified)
Reply text: < 4.00
